Test: Acute oral toxicity
Format: in vivo
Details: in vivo, 5000 mg/kg, 5 g/kg in corn oil

compound | mortality (%)
NCCN.O=C([O-])CCCCC(=O)[O-].[Zn+2] [Compound 3, Zinc Adipate Ethylenediamine] | 0

* * *

Overview of recorded Solubility for various molecules
Details: water

molecule | Solubility
NCCN.O=C([O-])CCCC(=O)[O-].[Zn+2] [Compound 2, Zinc Glutarate Ethylenediamine] | .16
NCCN.O=C([O-])c1ccc(C(=O)[O-])cc1.[Zn+2] [Compound 19, Zinc Terephthalate Ethylenediamine] | .66
NCCN.O=C([O-])c1ccccc1C(=O)[O-].[Zn+2] [Compound 17, Zinc Phthalate Ethylenediamine] | .02
NCCN.O=C([O-])c1cccc(C(=O)[O-])c1.[Zn+2] [Compound 18, Zinc Isophthalate Ethylenediamine] | 1.13
NCCN.O=C([O-])CCCCCCCC(=O)[O-].[Zn+2] [Compound 5, Zinc Azelate Ethylenediamine] | .21
NCCN.O=C([O-])CCCCCCCCCCC(=O)[O-].[Zn+2] [Compound 11, Zinc Dodecanedioate Ethylenediamine] | .015
